The reported numbers originate from ChEMBL document CHEMBL4808207.

# tested.target: Nicotinamide N-methyltransferase (Mus musculus, UniProt O55239)
# Sequence (O55239 whole entry): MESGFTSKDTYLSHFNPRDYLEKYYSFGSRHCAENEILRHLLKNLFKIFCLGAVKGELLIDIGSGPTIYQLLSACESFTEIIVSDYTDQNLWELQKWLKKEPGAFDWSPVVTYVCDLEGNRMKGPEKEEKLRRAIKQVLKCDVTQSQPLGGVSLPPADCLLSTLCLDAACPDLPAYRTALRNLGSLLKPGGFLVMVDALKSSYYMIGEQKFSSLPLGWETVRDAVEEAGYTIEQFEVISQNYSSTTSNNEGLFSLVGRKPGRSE
# method.summary: Inhibition of mouse recombinant NNMT using nicotinamide and SAM as substrate assessed as reduction in 1-methyl-nicotinamide formation incubated for 22 to 24 hrs by RapidFire Mass spectroscopy
Numbered stars: 1 amine (or outer) side, 2 acyl side, 3 side chain; on linkers, the order of the positions; unused ones are H or OH. Bridge positions count the residues as written; N and C are the ends. Square brackets hold non-standard residues; d marks the D form. Peptide text beside a SMILES is read from it. Pro(trans-4-Ph) = O=C(O)[C@@H]1C[C@@H](c2ccccc2)CN1; X1 = O=C([C@@H]1C[C@@H](C(F)(F)F)CN1[*:1])[*:2]; Phe(4-CONH2) = NC(=O)c1ccc(C[C@H](N)C(=O)O)cc1; NMeF = CN[C@@H](Cc1ccccc1)C(=O)O; Tic = O=C(O)[C@@H]1Cc2ccccc2CN1; hLys = NCCCCC[C@H](N)C(=O)O
assay.metric: pIC50
Field pIC50 (float): negative decimal logarithm of the concentration in molar.

| compound | tested.target | pIC50 |
| --- | --- | --- |
| CC(C)C[C@@H]1NC(=O)[C@@H]2CCCN2C(=O)[C@H](Cc2ccccc2)N(C)C(=O)CSC[C@@H](C(N)=O)NC(=O)[C@H](Cc2ccc(C(N)=O)cc2)NC(=O)[C@@H]2Cc3ccccc3CN2C(=O)[C@@H]2CCCN2C(=O)[C@H](CCCCCN)NC1=O ({CH2CO}-[NMeF]PL[hLys]P[Tic][Phe(4-CONH2)]C-NH2; thioether N-8) | Nicotinamide N-methyltransferase (Mus musculus, UniProt O55239) | 8.89 |

# input compound: CC(C)C[C@@H]1NC(=O)[C@@H]2C[C@@H](c3ccccc3)CN2C(=O)[C@H](Cc2ccccc2)NC(=O)CSC[C@@H](C(N)=O)NC(=O)[C@H](Cc2ccc(C(N)=O)cc2)NC(=O)[C@@H]2Cc3ccccc3CN2C(=O)[C@@H]2CCCN2C(=O)[C@H](CCCCN)NC1=O ({CH2CO}-F[Pro(trans-4-Ph)]LKP[Tic][Phe(4-CONH2)]C-NH2; thioether N-8) ; wanted: its pIC50
8.92

Given the compound CC(C)C[C@@H]1NC(=O)[C@@H]2CCCN2C(=O)[C@H](Cc2ccccc2)NC(=O)CSC[C@@H](C(N)=O)NC(=O)[C@H](Cc2ccc(C(N)=O)cc2)NC(=O)[C@@H]2Cc3ccccc3CN2C(=O)[C@@H]2C[C@@H](C(F)(F)F)CN2C(=O)[C@H](CCCCN)NC1=O ({CH2CO}-FPLK[X1][Tic][Phe(4-CONH2)]C-NH2; thioether N-8) , what is its reported pIC50?
6.58
